- Test system: MRSA COL (NRS100)
- Assay Details: MIC, broth micro-dilution technique (CLSI)
- Type: cell-based, Staphylococcus aureus
- Condition Notes: Staphylococcus aureus, 22 h, read-out: MIC (μg/mL) (COL)
Assign labels as follows, please: satisfied for MIC below 0.4 µg/mL; not satisfied for MIC equal to or exceeding 0.4 µg/mL.

Structure Smiles String	Tested Target	Answer Label
CCCCCCCCc1ccc(C(=O)N[C@@H](CCCN)C(=O)N(C)[C@@H]2C(=O)N[C@@H](C)C(=O)N[C@H](C(=O)N[C@@H](C)B3O[C@@H]4C[C@@H]5C[C@@H](C5(C)C)[C@]4(C)O3)Cc3ccc(OCCCN)c(c3)-c3cc2ccc3OCCCN)cc1	MRSA COL (NRS100)	satisfied
CCCCCCCCCCCCCC(=O)N(C)[C@@H]1C(=O)N[C@@H](C)C(=O)N[C@H](C(=O)N[C@@H](C)B2O[C@@H]3C[C@@H]4C[C@@H](C4(C)C)[C@]3(C)O2)Cc2ccc(OCCN)c(c2)-c2cc1ccc2OCCN	MRSA COL (NRS100)	not satisfied
C[C@H](NC(=O)[C@@H]1Cc2ccc(O)c(c2)-c2cc(ccc2OCCN)[C@H](N(C)C(=O)[C@H](CCCCN)NC(=O)c2ccc(-c3ccc(Cl)cc3)cc2)C(=O)N[C@@H](C)C(=O)N1)B1O[C@@H]2C[C@@H]3C[C@@H](C3(C)C)[C@]2(C)O1	MRSA COL (NRS100)	satisfied
CCCCc1ccc(-c2ccc(C(=O)N[C@@H](CCCCN)C(=O)N(C)[C@@H]3C(=O)N[C@@H](C)C(=O)N[C@H](C(=O)N[C@@H](C)B4O[C@@H]5C[C@@H]6C[C@@H](C6(C)C)[C@]5(C)O4)Cc4ccc(OCCN)c(c4)-c4cc3ccc4OCCN)cc2)cc1	MRSA COL (NRS100)	satisfied
C[C@@H]1NC(=O)[C@@H](N(C)C(=O)[C@H](CCCCN)NC(=O)c2ccc(-c3ccccc3Cl)cc2)c2ccc(OCCN)c(c2)-c2cc(ccc2OCCN)C[C@@H](C(=O)O)NC1=O	MRSA COL (NRS100)	not satisfied
C[C@@H]1NC(=O)[C@@H](N(C)C(=O)[C@H](CCCCN)NC(=O)c2ccccc2-c2ccc(Cl)cc2)c2ccc(OCCN)c(c2)-c2cc(ccc2OCCN)C[C@@H](C(=O)O)NC1=O	MRSA COL (NRS100)	not satisfied
C[C@@H]1NC(=O)[C@@H](N(C)C(=O)[C@H](CCCCN)NC(=O)c2ccc(-c3ccc(Cl)cc3)cc2)c2cc(C#N)c(O)c(c2)-c2cc(ccc2O)C[C@@H](C(=O)O)NC1=O	MRSA COL (NRS100)	not satisfied
C[C@@H]1NC(=O)[C@@H](N(C)C(=O)[C@H](CCCCN)NC(=O)c2ccc(-c3ccc(C(C)(C)C)cc3)cc2)c2ccc(OCCN)c(c2)-c2cc(ccc2OCCN)C[C@@H](C(=O)O)NC1=O	MRSA COL (NRS100)	satisfied

----------
Each entry below carries its recorded log10(MIC).
- Test system: MRSA COL (NRS100)
- Assay Details: MIC, broth micro-dilution technique (CLSI)
- Format: cell-based, Staphylococcus aureus
- Condition Notes: Staphylococcus aureus, 22 h, read-out: MIC (μg/mL) (COL)
Reported Property: log10(MIC) (log10 of the value in µg/mL)

Compound	log10(MIC)
CCCCCCCCCCNCCS(=O)(=O)N[C@@H](CCCCN)C(=O)N(C)[C@@H]1C(=O)N[C@@H](C)C(=O)N[C@H](C(=O)O)Cc2ccc(O)c(c2)-c2cc1ccc2O [Compound 214]	-0.12
C[C@@H]1NC(=O)[C@@H](N(C)C(=O)[C@H](CCCCN)NC(=O)c2ccc(-c3ccc(Cl)cc3)cc2)c2ccc(O)c(c2)-c2cc(ccc2O)C[C@@H](C(=O)N[C@@H](C)/C=C/S(C)(=O)=O)NC1=O [Compound 144]	0.30
CCCCCCCCc1ccc(C(=O)N[C@@H](CN)C(=O)N(C)[C@@H]2C(=O)N[C@@H](C)C(=O)N[C@H](C(=O)O)Cc3ccc(OCCN)c(c3)-c3cc2ccc3OCCN)cc1 [Compound 300]	-0.89
C[C@H](NC(=O)[C@@H]1Cc2ccc(O)c(c2)-c2cc(ccc2OCCN)[C@H](N(C)C(=O)[C@H](CCCCN)NC(=O)c2ccc(-c3ccc(Cl)cc3)cc2)C(=O)N[C@@H](C)C(=O)N1)C(=O)CO [Compound 118]	-0.20
CCOS(=O)(=O)/C=C/[C@H](C)NC(=O)[C@@H]1Cc2ccc(O)c(c2)-c2cc(ccc2O)[C@H](N(C)C(=O)[C@H](CCCCN)NC(=O)c2ccc(-c3ccc(Cl)cc3)cc2)C(=O)N[C@@H](C)C(=O)N1 [Compound 248]	0.60
CCCCCCCCc1ccc(C(=O)N[C@@H](CCCN)C(=O)N(C)[C@@H]2C(=O)N[C@@H](C)C(=O)N[C@H](C(=O)O)Cc3ccc(OCCN)c(c3)-c3cc2ccc3OCCN)c(F)c1 [Compound 297]	-1.20
CCCCCCCCCCCCCC(=O)N(C)[C@@H]1C(=O)N[C@@H](C)C(=O)N[C@H](C(=O)O)Cc2ccc(OCCN)c(c2)-c2cc1ccc2OCCN [Compound 291]	0.60
CCCCCCCCCCNCCC(=O)N[C@@H](CCCCN)C(=O)N(C)[C@@H]1C(=O)N[C@@H](C)C(=O)N[C@H](C(=O)O)Cc2ccc(O)c(c2)-c2cc1ccc2O [Compound 110]	0.90
C[C@H](NC(=O)[C@@H]1Cc2ccc(O)c(c2)-c2cc(ccc2O)[C@H](N(C)C(=O)[C@H](CCCCN)NC(=O)c2ccc(-c3ccc(Cl)cc3)cc2)C(=O)N[C@@H](C)C(=O)N1)B1O[C@@H]2C[C@@H]3C[C@@H](C3(C)C)[C@]2(C)O1 [Compound 133]	0.18
COC(=O)C(=O)[C@H](C)NC(=O)[C@@H]1Cc2ccc(O)c(c2)-c2cc(ccc2O)[C@H](N(C)C(=O)[C@H](CCCCN)NC(=O)c2ccc(-c3ccc(Cl)cc3)cc2)C(=O)N[C@@H](C)C(=O)N1 [Compound 139]	0.60
CC(=O)[C@H](C)NC(=O)[C@@H]1Cc2ccc(OCCO)c(c2)-c2cc(ccc2OCCN)[C@H](N(C)C(=O)[C@H](CCCCN)NC(=O)c2ccc(-c3ccc(Cl)cc3)cc2)C(=O)N[C@@H](C)C(=O)N1 [Compound 330]	0.00
C[C@H](NC(=O)[C@@H]1Cc2ccc(O)c(c2)-c2cc(ccc2O)[C@H](N(C)C(=O)[C@H](CCCCN)NC(=O)c2ccc(-c3ccc(Cl)cc3)cc2)C(=O)N[C@@H](C)C(=O)N1)C(=O)CNS(C)(=O)=O [Compound 162]	0.30
CCCCCCCCCCNCCS(=O)(=O)N[C@@H](CCN)C(=O)N(C)[C@@H]1C(=O)N[C@@H](C)C(=O)N[C@H](C(=O)N[C@@H](C)C(C)=O)Cc2ccc(O)c(c2)-c2cc1ccc2O [Compound 218]	-0.89
CCCCCCCCCCCCCC(=O)N[C@@H](CC)C(=O)N(C)[C@@H]1C(=O)N[C@@H](C)C(=O)N[C@H](C(=O)O)Cc2ccc(OCCN)c(c2)-c2cc1ccc2OCCN [Compound 308]	-0.42
CCCCCCCCc1ccc(C(=O)N[C@@H](CCCN)C(=O)N(C)[C@@H]2C(=O)N[C@@H](C)C(=O)N[C@H](C(=O)O)Cc3ccc(OCCN)c(c3)-c3cc2ccc3OCCN)c(C)c1 [Compound 296]	-1.20
CCCCCCCCC(=O)N[C@@H](CCN)C(=O)N(C)[C@@H]1C(=O)N[C@@H](C)C(=O)N[C@H](C(=O)O)Cc2ccc(OCCN)c(c2)-c2cc1ccc2OCCN [Compound 307]	0.48
CCCCCCCCCCCCS(=O)(=O)N[C@@H](CCCCN)C(=O)N(C)[C@@H]1C(=O)N[C@@H](C)C(=O)N[C@H](C(=O)O)Cc2ccc(O)c(c2)-c2cc1ccc2O [Compound 220]	-0.48
C[C@@H]1NC(=O)[C@@H](N(C)C(=O)[C@H](CCCCN)NC(=O)c2ccc(-c3ccc(Cl)cc3)cc2)c2cc(c3oc(CN)cc3c2)-c2cc(ccc2O)C[C@@H](C(=O)O)NC1=O [Compound 211]	0.30
C[C@H](NC(=O)[C@@H]1Cc2ccc(O)c(c2)-c2cc(ccc2O)[C@H](N(C)C(=O)[C@H](CCCCN)NC(=O)c2ccc(-c3ccc(Cl)cc3)cc2)C(=O)N[C@@H](C)C(=O)N1)C(=O)CP(=O)(O)O [Compound 166]	0.90

----------
Documented MIC (μg/mL) S. aureus across a set of molecules
- Tested on: Methicillin Resistant Staphylococcus aureus strain USA 300 (NRS384)
- Assay Details: MIC, broth micro-dilution technique (CLSI)
- Type: cell-based
- Condition Notes: Table 1 protocol: serial 2-fold dilutions starting from 64 μg/ml; 35° C., 22 hours
Reported Property: MIC (μg/mL) S. aureus (µg/mL)

Molecule	Unit Text	Value Modifier	Result Number
CC1OC1C(=O)[C@H](C)NC(=O)[C@@H]1Cc2ccc(O)c(c2)-c2cc(ccc2O)[C@H](N(C)C(=O)[C@H](CCCCN)NC(=O)c2ccc(-c3ccc(Cl)cc3)cc2)C(=O)N[C@@H](C)C(=O)N1 (some centres unmarked)	µg/mL	=	5.7
C[C@@H]1NC(=O)[C@@H](N(C)C(=O)[C@H](CCCCN)NC(=O)c2ccc(-c3ccc(Cl)cc3)cc2)c2ccc(O)c(c2)-c2cc(ccc2O)C[C@@H](C(=O)NCC(=O)CC2CCNC2=O)NC1=O (some centres unmarked)	µg/mL	>	64
CCCCCCCCCCNCCC(=O)N[C@@H](CCCCN)C(=O)N(C)[C@@H]1C(=O)N[C@@H](C)C(=O)N[C@H](C(=O)N[C@@H](C)C(C)=O)Cc2ccc(OCCN)c(c2)-c2cc1ccc2OCCN.O=CO	µg/mL	=	0.25
C[C@@H]1NC(=O)[C@@H](N(C)C(=O)[C@H](CCCCN)NC(=O)c2ccc(-c3ccc(Cl)cc3)cc2)c2ccc(O)c(c2)-c2cc(ccc2O)C[C@@H](C(=O)N[C@@H](C)C(=O)C(F)(F)C(=O)O)NC1=O	µg/mL	=	10
CCCCCCCCCCNCC(=O)N[C@@H](CCCCN)C(=O)N(C)[C@@H]1C(=O)N[C@@H](C)C(=O)N[C@H](C(=O)N[C@@H](C)C(C)=O)Cc2ccc(O)c(c2)-c2cc1ccc2O	µg/mL	=	2.8
